- experimental-protocol: Stability in pH 3 buffer assessed as half life at 37 degC by 31P NMR analysis
- Type: physicochemical

{"chem-smiles": "CC(=O)NCCOP(=O)([O-])N[C@@H](Cc1ccc(O)c(O)c1)C(=O)[O-].[K+].[K+]", "readout-units": "h", "qualifier-operator": "=", "half-life": 1.7}
{"chem-smiles": "O=C([O-])CCOP(=O)([O-])N[C@@H](Cc1ccc(O)c(O)c1)C(=O)[O-].[K+].[K+].[K+]", "readout-units": "h", "qualifier-operator": "<", "half-life": 0.0833}
{"chem-smiles": "CCOC(=O)CCOP(=O)([O-])N[C@@H](Cc1ccc(O)c(O)c1)C(=O)[O-].[K+].[K+]", "readout-units": "h", "qualifier-operator": "=", "half-life": 1.7}
{"chem-smiles": "CC(=O)N[C@@H](COP(=O)([O-])NCCc1ccc(O)c(O)c1)C(=O)[O-].[K+].[K+]", "readout-units": "h", "qualifier-operator": "<", "half-life": 0.0833}

====

- experimental-protocol: Stability in pH 3 buffer assessed as rate constant of compound hydrolysis at 37 degC by 31P NMR analysis
- Type: physicochemical

{"chem-smiles": "CC(=O)N[C@@H](COP(=O)([O-])NCCc1ccc(O)c(O)c1)C(=O)[O-].[K+].[K+]", "K": "Unstable"}
{"chem-smiles": "CC(=O)N[C@@H](COP(=O)([O-])N[C@@H](Cc1ccc(O)c(O)c1)C(=O)[O-])C(=O)[O-].[K+].[K+].[K+]", "K": "Unstable"}
{"chem-smiles": "CC(=O)N[C@H](C(=O)[O-])[C@@H](C)OP(=O)([O-])N[C@@H](Cc1ccc(O)c(O)c1)C(=O)[O-].[K+].[K+].[K+]", "K": "Unstable"}
{"chem-smiles": "CCOC(=O)[C@H](COP(=O)([O-])N[C@@H](Cc1ccc(O)c(O)c1)C(=O)[O-])NC(C)=O.[K+].[K+]", "K": "2.5 ×10⁻¹ /hr"}
{"chem-smiles": "O=C([O-])CCOP(=O)([O-])N[C@@H](Cc1ccc(O)c(O)c1)C(=O)[O-].[K+].[K+].[K+]", "K": "Unstable"}
